# method: Cytotoxicity against human foreskin fibroblast cells by colorimetric method
# Format: cell-based
# run parameters: human foreskin fibroblast (HFF) cells, read-out: TD50 (the source's name)
Exercise: state measured log10(CC50) for each of the compounds provided.
Each number you see is log10 of CC50, and the unit inside the log is µM.

Quick one: log10(CC50) for O=C1c2ccccc2-n2c1nc1ccccc1c2=O ?
0.81

Quick one: log10(CC50) for N/N=C1/c2ccccc2-n2c1nc1ccccc1c2=O ?
1.51

Quick one: log10(CC50) for CC(=O)CC1(O)c2ccccc2-n2c1nc1ccccc1c2=O (centres undefined) ?
1.04

Quick one: log10(CC50) for N/N=C1/c2cc(Br)ccc2-n2c1nc1ccccc1c2=O ?
1.90

Quick one: log10(CC50) for O=c1c2ccccc2nc2n1-c1ccc(Br)cc1/C2=N/O ?
1.70

Quick one: log10(CC50) for O=CO/N=C1\c2ccccc2-n2c1nc1ccccc1c2=O ?
1.34

Quick one: log10(CC50) for CC(=O)O[C@@H]1c2ccccc2N2C(=O)c3ccccc3N[C@@H]12 ?
1.60

Quick one: log10(CC50) for CC(=O)O/N=C1\c2ccccc2-n2c1nc1ccccc1c2=O ?
1.54

Quick one: log10(CC50) for O=C1c2ccccc2N[C@H]2[C@H](O)c3ccccc3N12 ?
1.08

====

# method: Therapeutic index, ratio of TD50 for human foreskin fibroblast cells to ID 50 for Toxoplasma gondii
# Type: cell-based
# run parameters: read-out: TI
selectivity ratio under 50 gets 1, anything at or over 50 gets 0.

Identify whether the compound O=C1c2ccccc2-n2c1nc1ccccc1c2=O [TRYPTANTHRIN] records selectivity ratio below 50.
1

Identify whether the compound O=CO/N=C1\c2ccccc2-n2c1nc1ccccc1c2=O records selectivity ratio below 50.
1

Identify whether the compound O=C1c2ccccc2N[C@H]2[C@H](O)c3cc(Br)ccc3N12 records selectivity ratio below 50.
0

Identify whether the compound N/N=C1/c2cc(Br)ccc2-n2c1nc1ccccc1c2=O records selectivity ratio below 50.
0

Identify whether the compound O=c1c2ccccc2nc2n1-c1ccc(Br)cc1/C2=N/O records selectivity ratio below 50.
0

Identify whether the compound O=Nc1c2ccccc2n2c(O)c3ccccc3nc12 records selectivity ratio below 50.
0

Identify whether the compound CON=C1c2ccccc2-n2c1nc1ccccc1c2=O (mixture of isomers) records selectivity ratio below 50.
0

====

# Tested on: Toxoplasma gondii
# method: Antimicrobial activity against Toxoplasma gondii assessed as inhibition of growth measured after 5 days by beta-galactosidase assay
# Assay type: functional
# run parameters: 120 h, read-out: ID50 (the source's name)
IC50 under 800 nM gets Satisfied, anything at or over 800 nM gets Not satisfied.

Identify whether the molecule CON=C1c2cc(Br)ccc2-n2c1nc1ccccc1c2=O (single isomer, unassigned) records IC50 below 800 nM.
Satisfied

Identify whether the molecule CC1(O)c2ccccc2-n2c1nc1ccccc1c2=O (centres undefined) records IC50 below 800 nM.
Not satisfied

Identify whether the molecule O=C1c2ccccc2N[C@H]2[C@H](O)c3ccccc3N12 records IC50 below 800 nM.
Satisfied

Identify whether the molecule CC(=O)O[C@@H]1c2ccccc2N2C(=O)c3ccccc3N[C@@H]12 records IC50 below 800 nM.
Not satisfied

Identify whether the molecule COc1cc(Cc2cnc(N)nc2N)cc(OC)c1OC records IC50 below 800 nM.
Not satisfied

Identify whether the molecule O=c1c2ccccc2nc2n1-c1ccc(Br)cc1/C2=N/O records IC50 below 800 nM.
Satisfied

Identify whether the molecule N/N=C1/c2cc(Br)ccc2-n2c1nc1ccccc1c2=O records IC50 below 800 nM.
Satisfied

Identify whether the molecule CC(=O)N/N=C1/c2ccccc2-n2c1nc1ccccc1c2=O records IC50 below 800 nM.
Not satisfied

Identify whether the molecule CC(=O)O/N=C1\c2ccccc2-n2c1nc1ccccc1c2=O records IC50 below 800 nM.
Not satisfied

Identify whether the molecule O=C1c2cc(Br)ccc2-n2c1nc1ccccc1c2=O records IC50 below 800 nM.
Satisfied

Identify whether the molecule CC(=O)CC1(O)c2ccccc2-n2c1nc1ccccc1c2=O (centres undefined) records IC50 below 800 nM.
Satisfied

Identify whether the molecule CC1(O)c2cc(Br)ccc2-n2c1nc1ccccc1c2=O (centres undefined) records IC50 below 800 nM.
Not satisfied

Identify whether the molecule N/N=C1/c2ccccc2-n2c1nc1ccccc1c2=O records IC50 below 800 nM.
Not satisfied

Identify whether the molecule O=C(N/N=C1/c2ccccc2-n2c1nc1ccccc1c2=O)C(F)(F)F records IC50 below 800 nM.
Not satisfied

Identify whether the molecule CON=C1c2ccccc2-n2c1nc1ccccc1c2=O (mixture of isomers) records IC50 below 800 nM.
Not satisfied

Identify whether the molecule O=C1c2ccccc2N[C@H]2[C@H](O)c3cc(Br)ccc3N12 records IC50 below 800 nM.
Satisfied

Identify whether the molecule O=C1c2ccccc2-n2c1nc1ccccc1c2=O records IC50 below 800 nM.
Satisfied

Identify whether the molecule O=CO/N=C1\c2ccccc2-n2c1nc1ccccc1c2=O records IC50 below 800 nM.
Satisfied
